As shown below, each of these molecules has a reported IC50 value.
- ASSAY TARGET: hD2L receptor (Homo sapiens)
- Construct: purchased BioSignal Packard Inc., Montreal, Canada
- Sequence (P14416 whole entry): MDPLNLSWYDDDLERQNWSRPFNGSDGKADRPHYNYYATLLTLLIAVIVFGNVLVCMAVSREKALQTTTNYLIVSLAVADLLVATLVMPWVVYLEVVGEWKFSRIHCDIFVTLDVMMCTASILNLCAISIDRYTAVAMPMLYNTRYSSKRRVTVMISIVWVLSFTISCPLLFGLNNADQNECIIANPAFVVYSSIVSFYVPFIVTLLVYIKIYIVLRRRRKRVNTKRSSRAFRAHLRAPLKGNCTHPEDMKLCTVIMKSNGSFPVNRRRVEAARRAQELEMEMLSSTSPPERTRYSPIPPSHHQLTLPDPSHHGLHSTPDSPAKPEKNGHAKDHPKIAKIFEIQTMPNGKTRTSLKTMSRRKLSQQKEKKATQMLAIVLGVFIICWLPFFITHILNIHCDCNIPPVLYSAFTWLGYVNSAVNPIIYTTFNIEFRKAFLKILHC
- PROTOCOL DESCRIPTION: Dopamine receptor family binding: D2 ([3H]spiperone)
- REPORTED CONDITIONS: [3H]spiperone 1 nM; read-out: Binding affinity, IC50 (nM), D2
Use nM as the unit, but write only the number.

What does the data say about its IC50? Entry: C[C@@H](c1ccccc1)N1C(=O)N(Cc2ccccc2)c2cc(Cl)cc(N3CCN(C)CC3)c2S1(=O)=O
6580

What does the record list as IC50 for Cc1cc(C)cc(CCCN2C(=O)N(Cc3ccccc3)c3cc(Cl)cc(N4CCNCC4)c3S2(=O)=O)c1 ?
1640

Entry under review: O=C1N(Cc2ccccc2)c2cc(Cl)cc(N3CCNCC3)c2S(=O)(=O)N1Cc1cccc(O)c1 . Reported IC50?
2280

Which IC50 is reported for this molecule? O=C1N(Cc2ccccc2)c2cc(Cl)cc(N3CCNCC3)c2S(=O)(=O)N1Cc1ccccc1
667

Param item = COc1cccc(CN2C(=O)N(Cc3ccccc3)c3cc(Cl)cc(N4CCN(C)CC4)c3S2(=O)=O)c1 ; retrieve measured IC50.
4860

What does the record list as IC50 for COc1ccc(CN2C(=O)N(Cc3ccccc3)c3cc(Cl)cc(N4CCN(C)CC4)c3S2(=O)=O)cc1 ?
6580

I have this molecule here, COc1cccc(CN2C(=O)N(Cc3ccccc3)c3cc(Cl)cc(N4CCNCC4)c3S2(=O)=O)c1 , and I need its recorded IC50.
3220

May I ask what IC50 has been recorded for C[C@H](c1ccccc1)N1C(=O)N(Cc2ccccc2)c2cc(Cl)cc(N3CCN(C)CC3)c2S1(=O)=O ?
1920

---

Parameter melting point: see the listing below.

Here is how some compounds turned out for melting point.
Endpoint output: melting point of O=C1N(Cc2ccccc2)c2cc(Cl)cc(N3CCN(c4ccccn4)CC3)c2S(=O)(=O)N1Cc1ccccc1Cl . Value?
159 to 161 °C

Look at this compound and give its reported melting point. CCCN1C(=O)N(Cc2ccccc2)c2cc(Cl)cc(N3CCNCC3)c2S1(=O)=O
148 to 150 °C

For the compound COc1ccccc1CN1C(=O)N(Cc2ccccc2)c2cc(Cl)cc(N3CCNCC3)c2S1(=O)=O , what melting point is on record?
129 to 130 °C

New cases:
Quick check: melting point of O=C1N(Cc2ccccc2)c2cc(Cl)cc(N3CCOCC3)c2S(=O)(=O)N1Cc1ccccc1Cl ?
171 to 172 °C

Given O=C1N(Cc2ccccc2)c2cc(Cl)cc(N3CCN4CCC[C@H]4C3)c2S(=O)(=O)N1Cc1ccccc1Cl , state its recorded melting point.
143 to 144 °C

# get_value(readout='melting point', item= CCCCN1C(=O)N(Cc2ccccc2)c2cc(Cl)cc(N3CCN(C)CC3)c2S1(=O)=O )
116 to 118 °C

Dear colleague, I am looking for the recorded melting point of the following compound: Cc1ccc(CN2C(=O)N(Cc3ccccc3)c3cc(Cl)cc(N4CCN(C)CC4)c3S2(=O)=O)cc1
180 to 185 °C

Item CN1CCN(c2cc(Cl)cc3c2S(=O)(=O)N(Cc2ccccc2Cl)C(=O)N3Cc2ccccc2)CC1 has what recorded melting point?
132 to 133 °C

Could you tell me which melting point is on file for CN1CCN(c2cc(Cl)cc3c2S(=O)(=O)N(Cc2cccc(F)c2)C(=O)N3Cc2ccccc2)CC1 ?
85 to 87 °C

# get_value(readout='melting point', item= O=C1N(Cc2ccccc2)c2cc(Cl)cc(N3CCNCC3)c2S(=O)(=O)N1Cc1cccc2ccccc12 )
164 to 166 °C

Endpoint output: melting point of CN1CCN(c2cc(Cl)cc3c2S(=O)(=O)N(Cc2ccc(Br)cc2)C(=O)N3Cc2ccccc2)CC1 . Value?
115 to 116 °C

Report melting point for O=C1N(Cc2ccccc2)c2cc(Cl)cc(N3CCNCC3)c2S(=O)(=O)N1Cc1cccc(F)c1 please.
154 to 155 °C

Which melting point value is on record for CCN1C(=O)N(Cc2ccccc2)c2cc(Cl)cc(N3CCN(C)CC3)c2S1(=O)=O ?
167 to 169 °C

Please report the recorded melting point for O=C1N(Cc2ccccc2)c2cc(Cl)cc(N3CCNCC3)c2S(=O)(=O)N1Cc1ccc(I)cc1 .
153 to 154 °C

What measured melting point goes with CN1CCN(c2cc(Cl)cc3c2S(=O)(=O)N(Cc2ccc([N+](=O)[O-])cc2)C(=O)N3Cc2ccccc2)CC1 ?
163 to 164 °C

---

- ASSAY TARGET: Human serotonin 5-HT6 receptor (Homo sapiens)
- Sequence (P50406 whole entry): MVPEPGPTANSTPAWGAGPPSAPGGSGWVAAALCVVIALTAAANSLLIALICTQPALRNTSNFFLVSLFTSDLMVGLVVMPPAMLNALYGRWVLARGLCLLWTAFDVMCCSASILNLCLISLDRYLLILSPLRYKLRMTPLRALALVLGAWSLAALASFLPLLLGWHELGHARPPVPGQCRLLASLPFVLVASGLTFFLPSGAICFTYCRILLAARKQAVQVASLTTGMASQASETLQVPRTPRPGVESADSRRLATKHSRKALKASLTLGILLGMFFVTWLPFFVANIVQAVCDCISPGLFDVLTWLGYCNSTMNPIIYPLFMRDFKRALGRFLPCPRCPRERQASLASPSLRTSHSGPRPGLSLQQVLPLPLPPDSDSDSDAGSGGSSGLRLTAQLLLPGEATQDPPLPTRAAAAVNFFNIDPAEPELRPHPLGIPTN
- PROTOCOL DESCRIPTION: [3H]LSD binding assay on cloned 5-HT6 receptor
- REPORTED CONDITIONS: IC50 (nM), binding affinity to the 5-HT6 receptor, Table 2; 1.87 nM [3H]LSD, cloned human receptor membranes from Sf21 cells, 37° C. 60 min
READOUT LABEL: IC50 (nM)
Express the result in nM but write the number alone.

Consider the worked cases shown below.
Reported IC50 for COC(=O)c1ccc(CN2C(=O)N(Cc3ccccc3)c3cc(Cl)cc(N4CCNCC4)c3S2(=O)=O)cc1 : what is it?
8.4

For the compound shown here, O=C1N(Cc2ccccc2)c2cc(Cl)cc(N3CCNCC3)c2S(=O)(=O)N1Cc1ccccc1Cl , give the reported IC50.
15.9

# get_value(readout='IC50', item= O=C1N(Cc2ccccc2)c2cc(Cl)cc(N3CCNCC3)c2S(=O)(=O)N1Cc1ccccc1Br )
46

Can you look up the measured IC50 of CCCCCCCCCCN1C(=O)N(Cc2ccccc2)c2cc(Cl)cc(N3CCNCC3)c2S1(=O)=O for me?
3

Continuing:
Which IC50 value is on record for COc1ccc(CN2C(=O)N(Cc3ccccc3)c3cc(Cl)cc(N4CCNCC4)c3S2(=O)=O)cc1 ?
11.8

Data request, read-out IC50, for C[C@@H]1CN(c2cc(Cl)cc3c2S(=O)(=O)N(Cc2ccccc2Cl)C(=O)N3Cc2ccccc2)CCN1
147

---

- ASSAY TARGET: 5-HT2a (Homo sapiens, UniProt P28223)
- Construct: purchased Euroscreen/BioSignal Packard Inc
- Sequence (P28223 whole entry): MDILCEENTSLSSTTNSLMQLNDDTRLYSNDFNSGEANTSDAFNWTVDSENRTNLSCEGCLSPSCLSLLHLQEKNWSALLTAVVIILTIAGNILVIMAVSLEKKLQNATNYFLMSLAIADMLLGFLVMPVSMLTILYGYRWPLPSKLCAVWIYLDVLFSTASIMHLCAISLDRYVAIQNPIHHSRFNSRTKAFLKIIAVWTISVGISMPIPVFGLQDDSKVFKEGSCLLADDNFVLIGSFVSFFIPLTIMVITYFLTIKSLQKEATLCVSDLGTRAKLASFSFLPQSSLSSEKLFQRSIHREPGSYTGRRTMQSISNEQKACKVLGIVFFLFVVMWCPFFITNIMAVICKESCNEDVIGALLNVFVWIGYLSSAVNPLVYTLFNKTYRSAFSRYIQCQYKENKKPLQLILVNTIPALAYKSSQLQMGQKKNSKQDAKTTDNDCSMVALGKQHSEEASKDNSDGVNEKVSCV
- PROTOCOL DESCRIPTION: Radioligand binding, 5-HT receptor family: 5-HT2a ([3H]Ketanserin)
- REPORTED CONDITIONS: CHO-K1 human recombinant receptor, [3H]Ketanserin 1 nM; read-out: Binding affinity, IC50 (nM), 5-HT2a
Overview of recorded IC50 for various compounds
Hi! Could you send only the number? It should be in nM, unit omitted.

Quick one: IC50 of COc1cccc(CN2C(=O)N(Cc3ccccc3)c3cc(Cl)cc(N4CCNCC4)c3S2(=O)=O)c1 ?
1000

IC50 lookup needed for C[C@H](c1ccccc1)N1C(=O)N(Cc2ccccc2)c2cc(Cl)cc(N3CCNCC3)c2S1(=O)=O , thanks.
549

Query (compound): C[C@H](c1ccccc1)N1C(=O)N(Cc2ccccc2)c2cc(Cl)cc(N3CCN(C)CC3)c2S1(=O)=O ; field requested: IC50
350

Item under review: CN1CCN(c2cc(Cl)cc3c2S(=O)(=O)N(Cc2ccccc2)C(=O)N3Cc2ccccc2)CC1 . Reported IC50?
354

Entry under review: CN1CCN(c2cc(Cl)cc3c2S(=O)(=O)N(Cc2cccc(F)c2)C(=O)N3Cc2ccccc2)CC1 . Reported IC50?
846

Which IC50 is reported for this compound? O=C1N(Cc2ccccc2)c2cc(Cl)cc(N3CCNCC3)c2S(=O)(=O)N1Cc1cccc(O)c1
1150

Data request, read-out IC50, for O=C1N(Cc2ccccc2)c2cc(Cl)cc(N3CCNCC3)c2S(=O)(=O)N1Cc1ccccc1
1160

Continuing:
// query IC50 value for entry Cc1cc(C)cc(CCCN2C(=O)N(Cc3ccccc3)c3cc(Cl)cc(N4CCNCC4)c3S2(=O)=O)c1
710

---

READOUT LABEL: melting point

Using the record for Cc1ccccc1CN1C(=O)N(Cc2ccccc2)c2cc(Cl)cc(N3CCN(C)CC3)c2S1(=O)=O [Example 13] , report its melting point.
148 to 150 °C

Further cases:
Could you share which melting point value was measured for COc1cccc(N2C(=O)N(Cc3ccccc3)c3cc(Cl)cc(N4CCN(C)CC4)c3S2(=O)=O)c1 [Example 29] ?
191 to 193 °C

Find the recorded melting point belonging to CN1CCN(c2cc(Cl)cc3c2S(=O)(=O)N(Cc2ccccc2Br)C(=O)N3Cc2ccccc2)CC1 [Example 8] and report it.
107 to 109 °C

Data request, read-out melting point, for CCCN1C(=O)N(Cc2ccccc2)c2cc(Cl)cc(N3CCN(C)CC3)c2S1(=O)=O [Example 34]
91 to 93 °C

# melting point lookup, item N#Cc1ccc(CN2C(=O)N(Cc3ccccc3)c3cc(Cl)cc(N4CCNCC4)c3S2(=O)=O)cc1 [Example 57]
135 to 137 °C

Entry under review: COC(=O)c1ccc(CN2C(=O)N(Cc3ccccc3)c3cc(Cl)cc(N4CCN(C)CC4)c3S2(=O)=O)cc1 [Example 23] . Reported melting point?
140 to 143 °C

Item under review: O=C1N(Cc2ccccc2)c2cc(Cl)cc(N3CCNCC3)c2S(=O)(=O)N1Cc1ccccc1 [Example 44] . Reported melting point?
108 to 109 °C

Fill in: melting point of COc1ccccc1N1C(=O)N(Cc2ccccc2)c2cc(Cl)cc(N3CCN(C)CC3)c2S1(=O)=O [Example 28] is ___
119 to 120 °C
